tested on: COLO 205; assay: NCI tumour cell line growth inhibition, 48 h
Activity calls are given as the source filed them. No stated cut-off is given here; in the data, active = GI50 up to about 1.1 µM and inactive = higher.
Catalogue of molecules with associated GI50

{"columns": ["MOLECULE", "GI50"],
 "data": [
  ["COc1ccc(/C=C(\\C(=C/c2ccc(OC)cc2)[N+](=O)[O-])[N+](=O)[O-])cc1", "3.68 µM (inactive)"],
  ["O=C1Nc2ccccc2/C1=N/Nc1c(F)c(F)c(F)c(F)c1F", "13.9 µM (inactive)"],
  ["COc1cc(O)c2c(c1)C(=O)c1cc(C)cc(O)c1C2=O [PHYSCION]", "> 100 µM (inactive)"],
  ["O=S1(=O)OCCOS(=O)(=O)C1Cc1ccccc1", "19.1 µM (inactive)"],
  ["COC(=O)Cc1c([C@H]2[C@H](CC(=O)OC)c3ccccc3N2S(=O)(=O)c2ccc(C)cc2)[nH]c2ccccc12", "> 100 µM (inactive)"],
  ["Cc1nnc2sc(-c3ccc(N)cc3)nn12", "> 100 µM (inactive)"],
  ["CC(=O)OCC(=O)[C@@]12OC(C)(C)O[C@@H]1C[C@H]1[C@@H]3CC=C4C[C@@H](O)CC[C@]4(C)[C@H]3CC[C@@]12C", "> 100 µM (inactive)"],
  ["CC(C)c1ccccc1[S+]([O-])c1ccccc1C(C)(C)O (centres undefined)", "> 100 µM (inactive)"]
]}

Okay, now this molecule:
GI50 for "CC1(C)CNC(c2ccc3c(c2)Cc2cc(C4=NC(C)(C)CN4)ccc2-3)=N1" is 28.2 µM (inactive)

----------
tested on: MDA-MB-231; assay: NCI tumour cell line growth inhibition, 48 h
Active and inactive are the calls of the source. No stated cut-off is given here; in the data, active = GI50 up to about 1.1 µM and inactive = higher.
Response enum: active, inactive

Past entries and their recorded results:
{"columns": ["COMPOUND", "CLASS ASSIGNMENT"],
 "data": [
  ["O=C(CC(O)(C(F)(F)F)C(F)(F)F)c1cccs1", "inactive"],
  ["N#CCCN(C(=O)Nc1ccccc1)[C@H]1CCCC[C@@H]1N(C(=O)Nc1ccccc1)c1ccccc1", "inactive"],
  ["CC(C)c1ccccc1[S+]([O-])c1ccccc1C(C)(C)O (stereo unspecified)", "inactive"],
  ["CCN(CC)CCn1ccc(=O)c2cc3c(=O)ccn(CCN(CC)CC)c3c(C)c21", "inactive"],
  ["CCCCC/C=C1/CC(CO)(COC(=O)CC(C(C)C)C(C)C)OC1=O (stereo unspecified)", "inactive"]
]}

Now consider the entry below.
[in] Test call, this compound: "CC[C@@]1(O)C(=O)OCc2c1cc1n(c2=O)Cc2cc3c(NC(=O)CN)cccc3nc2-1"
[out] inactive

----------
system: UACC-257; experiment: NCI tumour cell line growth inhibition, 48 h
Active and inactive are the calls of the source. No stated cut-off is given here; in the data, active = GI50 up to about 1.1 µM and inactive = higher.
Response enum: True = active, False = inactive

{"columns": ["MOLECULE", "CLASS ASSIGNMENT"],
 "data": [
  ["CC1=CCC(C)=Nc2nc3ccccc3n21", "False"],
  ["COc1cc(/C=N/N=C2NCCCCN2)ccc1O", "False"],
  ["Cc1cc(-c2nc3ccc(F)cc3s2)ccc1NC(=O)C(N)CCCCN (configuration not stated)", "False"]
]}

[in] Test call, this molecule: "COC(=O)CCSC(=O)Nc1ccc(/N=N/c2ccccc2)cc1"
[out] False

[in] Test call, this molecule: "COc1c(Br)cc(/C=C(\C#N)c2cccnc2)cc1Br"
[out] False
